Recorded EC50, one value per entry.
- Test system: H1299 cell line
- Experiment Description: ATP-LITE cell viability assay, H1299
- Format: cell-based
- Experimental Conditions: Homo sapiens, NCI-H1299, 72 h, 3 days
Just the number please, in nM, no unit attached.

Some solved entries appear below for comparison.
{"Molecule": "CC1=C(C2=C(C)C(=O)c3c(cc(O)c(O)c3Cc3ccc(-c4ccccc4)cc3)C2=O)C(=O)c2cc(O)c(O)c(Cc3ccc(-c4ccccc4)cc3)c2C1=O [Compound 6m]", "Result Units": "nM", "EC50": 10300}
{"Molecule": "CC1=C(C2=C(C)C(=O)c3c(cc(O)c(O)c3CCCc3ccccc3)C2=O)C(=O)c2cc(O)c(O)c(CCCc3ccccc3)c2C1=O [Compound 6g]", "Result Units": "nM", "EC50": 1530}
{"Molecule": "CC1=C(C2=C(C)C(=O)c3c(cc(O)c(O)c3CCC3CCCCC3)C2=O)C(=O)c2cc(O)c(O)c(CCC3CCCCC3)c2C1=O [Compound 6d]", "Result Units": "nM", "EC50": 1320}

Qu. Give the measured EC50 of CC1=C(C2=C(C)C(=O)c3c(cc(O)c(O)c3CC3CCCC3)C2=O)C(=O)c2cc(O)c(O)c(CC3CCCC3)c2C1=O [Compound 6c] .
Ans. 2320

Qu. Queued: CC1=C(C2=C(C)C(=O)c3c(cc(O)c(O)c3CCc3ccccc3)C2=O)C(=O)c2cc(O)c(O)c(CCc3ccccc3)c2C1=O [Compound 6e]
Ans. 850

---

- System: RS4;11 cell line
- Experiment Description: Annexin V-FITC and propidium iodide apoptosis assay, RS4;11
- Assay type: cell-based
- Experimental Conditions: Homo sapiens, RS4-11, 24 h, 1 day
Recorded EC50, one value per entry.
Just the number please, in µM, no unit attached.

{"Compound": "CC1=C(C2=C(C)C(=O)c3c(cc(O)c(O)c3CCCc3ccccc3)C2=O)C(=O)c2cc(O)c(O)c(CCCc3ccccc3)c2C1=O [Compound 6g]", "EC50 / µM": 3.83}

Kindly consider the entry below.
Qu. Give the measured EC50 of CC1=C(C2=C(C)C(=O)c3c(cc(O)c(O)c3CCc3ccccc3)C2=O)C(=O)c2cc(O)c(O)c(CCc3ccccc3)c2C1=O [Compound 6e] .
Ans. 4.75

---

- Target Or System: Bcl-XL (Homo sapiens (Human), UniProt Q07817)
- Sequence (Q07817 1-211): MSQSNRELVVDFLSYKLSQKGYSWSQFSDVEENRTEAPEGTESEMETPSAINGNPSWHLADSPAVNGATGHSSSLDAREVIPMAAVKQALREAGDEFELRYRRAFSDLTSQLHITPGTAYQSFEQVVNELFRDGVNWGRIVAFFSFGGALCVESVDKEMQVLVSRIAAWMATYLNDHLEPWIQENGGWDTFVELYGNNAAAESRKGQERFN
- Experiment Description: Fluorescence polarization competitive binding assay (FPA), Bcl-XL
- Experimental Conditions: displacement of BH3 peptide
Measured Metric: IC50

Some solved entries appear below for comparison.
{"Molecule": "CC1=C(C2=C(C)C(=O)c3c(cc(O)c(O)c3CC(C)C)C2=O)C(=O)c2cc(O)c(O)c(CC(C)C)c2C1=O", "Measured Metric": "IC50", "Result": "550 nM"}
{"Molecule": "CC1=C(C2=C(C)C(=O)c3c(cc(O)c(O)c3C(=O)NCC(C)c3ccccc3)C2=O)C(=O)c2cc(O)c(O)c(C(=O)NCC(C)c3ccccc3)c2C1=O (stereo not drawn)", "Measured Metric": "IC50", "Result": "160 to 630 nM"}
{"Molecule": "CC1=C(C2=C(C)C(=O)c3c(cc(O)c(O)c3Cc3ccccc3)C2=O)C(=O)c2cc(O)c(O)c(Cc3ccccc3)c2C1=O", "Measured Metric": "IC50", "Result": "160 to 630 nM"}
{"Molecule": "CCc1ccc(CCNC(=O)c2c(O)c(O)cc3c2C(=O)C(C)=C(C2=C(C)C(=O)c4c(cc(O)c(O)c4C(=O)NCCc4ccc(CC)cc4)C2=O)C3=O)cc1", "Measured Metric": "IC50", "Result": "160 to 630 nM"}
{"Molecule": "CC1=C(C2=C(C)C(=O)c3c(cc(O)c(O)c3C(=O)Cc3ccccc3)C2=O)C(=O)c2cc(O)c(O)c(C(=O)Cc3ccccc3)c2C1=O", "Measured Metric": "IC50", "Result": "160 to 630 nM"}

Qu. Give the measured IC50 of CC1=C(C2=C(C)C(=O)c3c(cc(O)c(O)c3C(C)C)C2=O)C(=O)c2cc(O)c(O)c(C(C)C)c2C1=O [Compound 6a, reference compound] .
Ans. 630 nM
